# Tgt: Dopamine D5 (Homo sapiens, UniProt P21918)
# Sequence (P21918 whole entry): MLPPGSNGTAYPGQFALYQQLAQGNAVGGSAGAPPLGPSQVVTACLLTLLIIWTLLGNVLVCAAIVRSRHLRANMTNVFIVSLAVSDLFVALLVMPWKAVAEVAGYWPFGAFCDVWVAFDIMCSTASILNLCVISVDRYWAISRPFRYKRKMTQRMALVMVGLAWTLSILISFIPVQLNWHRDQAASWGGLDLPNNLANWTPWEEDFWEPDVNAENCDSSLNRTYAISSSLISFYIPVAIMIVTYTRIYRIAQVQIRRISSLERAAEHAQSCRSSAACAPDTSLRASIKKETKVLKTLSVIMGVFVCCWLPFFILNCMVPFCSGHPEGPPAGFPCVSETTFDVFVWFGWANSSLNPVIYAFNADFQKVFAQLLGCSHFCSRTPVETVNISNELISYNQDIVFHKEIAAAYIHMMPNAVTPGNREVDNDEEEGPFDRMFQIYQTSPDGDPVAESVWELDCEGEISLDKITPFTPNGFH
# Assay Text: FLIPR Ca2+ assay, antagonist of dopamine D5 receptor in transiently transfected HEK293T cells
# Recorded Conditions: dose-effect curve, HEK293T
pIC50: −log10 of the molar value.
Value Kind: pIC50

• COc1cc2c(cc1O)CC[n+]1cc3c(OC)c(OC)ccc3c(C)c1-2 [Compound 12, dehydrocorybulbine] = 6.14

====

# Tgt: Dopamine D3 (Homo sapiens, UniProt P35462)
# Sequence (P35462 whole entry): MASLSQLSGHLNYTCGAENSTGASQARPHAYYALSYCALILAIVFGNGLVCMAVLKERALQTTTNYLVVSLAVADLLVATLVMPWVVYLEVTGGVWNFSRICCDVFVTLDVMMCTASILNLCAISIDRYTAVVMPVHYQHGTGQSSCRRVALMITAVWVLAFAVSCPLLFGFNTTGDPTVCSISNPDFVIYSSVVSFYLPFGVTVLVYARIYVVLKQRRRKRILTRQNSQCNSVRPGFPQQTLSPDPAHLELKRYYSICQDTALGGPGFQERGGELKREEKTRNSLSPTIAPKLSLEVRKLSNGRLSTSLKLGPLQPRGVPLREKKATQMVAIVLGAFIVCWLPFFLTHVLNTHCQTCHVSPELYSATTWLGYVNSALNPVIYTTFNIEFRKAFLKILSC
# Assay Text: FLIPR Ca2+ assay, antagonist of dopamine D3 receptor in transiently transfected HEK293T cells
# Recorded Conditions: dose-effect curve, HEK293T
pIC50: −log10 of the molar value.
Value Kind: pIC50

• COc1cc2c(cc1O)CC[n+]1cc3c(OC)c(OC)ccc3c(C)c1-2 [Compound 12, dehydrocorybulbine] = 5.62

====

# Tgt: Dopamine D4 (Homo sapiens)
# Sequence (P21917 whole entry): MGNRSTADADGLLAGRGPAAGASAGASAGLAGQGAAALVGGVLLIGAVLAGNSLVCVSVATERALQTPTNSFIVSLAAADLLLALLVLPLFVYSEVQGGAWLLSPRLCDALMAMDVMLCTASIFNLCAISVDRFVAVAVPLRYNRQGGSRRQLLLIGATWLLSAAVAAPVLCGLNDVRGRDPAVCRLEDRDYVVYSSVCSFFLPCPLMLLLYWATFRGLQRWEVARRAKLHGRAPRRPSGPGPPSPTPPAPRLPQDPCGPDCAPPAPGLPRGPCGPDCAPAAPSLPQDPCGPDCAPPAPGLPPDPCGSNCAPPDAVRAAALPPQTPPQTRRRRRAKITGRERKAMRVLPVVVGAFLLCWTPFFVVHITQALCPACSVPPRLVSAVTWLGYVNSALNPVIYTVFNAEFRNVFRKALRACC
# Assay Text: FLIPR Ca2+ assay, antagonist of dopamine D4 receptor in transiently transfected HEK293T cells
# Recorded Conditions: dose-effect curve, HEK293T
Value Kind: IC50 (µM)

- COc1cc2c(cc1O)CC[n+]1cc3c(OC)c(OC)ccc3c(C)c1-2 [Compound 12, dehydrocorybulbine]: 8.4

====

# Tgt: UniProtKB P35372
# Sequence (P35372 whole entry, species assumed): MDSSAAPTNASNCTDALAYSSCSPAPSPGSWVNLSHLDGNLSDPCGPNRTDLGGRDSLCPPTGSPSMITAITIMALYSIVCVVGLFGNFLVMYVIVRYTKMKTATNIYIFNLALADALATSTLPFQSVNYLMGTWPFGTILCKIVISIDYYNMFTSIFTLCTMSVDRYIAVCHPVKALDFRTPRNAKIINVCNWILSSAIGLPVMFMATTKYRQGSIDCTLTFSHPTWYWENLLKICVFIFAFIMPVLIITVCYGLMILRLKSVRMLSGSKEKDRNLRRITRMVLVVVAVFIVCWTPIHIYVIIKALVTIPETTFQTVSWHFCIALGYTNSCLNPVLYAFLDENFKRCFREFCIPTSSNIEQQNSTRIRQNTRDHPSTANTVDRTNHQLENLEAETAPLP
# Assay Text: FLIPR Ca2+ assay, agonist of μ opioid receptor in stably transfected HEK293T cells
# Recorded Conditions: dose-effect curve
pEC50: −log10 of the molar value.
Value Kind: pEC50

- COc1cc2c(cc1O)CC[n+]1cc3c(OC)c(OC)ccc3c(C)c1-2 [Compound 12, dehydrocorybulbine]: 4.00

====

# Tgt: Dopamine D1 (Homo sapiens, UniProt P21728)
# Sequence (P21728 whole entry): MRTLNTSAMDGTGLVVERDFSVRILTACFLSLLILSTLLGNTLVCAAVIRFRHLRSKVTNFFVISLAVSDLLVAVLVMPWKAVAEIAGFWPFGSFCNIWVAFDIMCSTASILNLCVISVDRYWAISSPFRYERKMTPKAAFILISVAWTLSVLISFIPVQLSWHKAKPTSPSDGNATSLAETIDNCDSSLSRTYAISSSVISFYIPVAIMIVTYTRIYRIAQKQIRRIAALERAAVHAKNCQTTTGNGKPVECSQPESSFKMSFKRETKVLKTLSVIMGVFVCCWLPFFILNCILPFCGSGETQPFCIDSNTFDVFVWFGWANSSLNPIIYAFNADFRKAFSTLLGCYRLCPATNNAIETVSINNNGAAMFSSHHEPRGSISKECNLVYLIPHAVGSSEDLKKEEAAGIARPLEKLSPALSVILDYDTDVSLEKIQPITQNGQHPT
# Assay Text: FLIPR Ca2+ assay, antagonist of dopamine D1 receptor in transiently transfected HEK293T cells
# Recorded Conditions: dose-effect curve, HEK293T
# Protocol: Experimental scheme: the cells used to express μ opioid receptors in this research are stably transfected human embryonic kidney 293T cells (HEK293T); the dopamine receptor applied is transiently transfected HEK293T. In this scheme, part of the berberine derivatives obtained in the present invention were added to the cells that have expressed with corresponding receptors, and FLIPR (Fluorometric Imaging Plate Reader; Molecular Devices Corp) was applied to screen and identify their functions. […]
Value Kind: IC50 (nM)

• COc1cc2c(cc1O)CC[n+]1cc3c(OC)c(OC)ccc3c(C)c1-2 [Compound 12, dehydrocorybulbine] = 2160

From: patent US9610281B2
